Test system: senescent A549 cells
Experiment: Viability of senescent A549 cells (CellTiter-Glo), Example 18, Table 15
Conditions: […]; doxorubicin-induced senescent A549 cells; 0 μM = 100%
property_name: Survival (%)
Hi! Could you send only the number? It should be in %, unit omitted.

Quick note, Survival (%) for CN1CCc2c(c3ccccc3n2Cc2ccc(C(=O)NO)cc2)C1 [LX-5352, Tubastatin A] landed at 87.5

Form: molecule = O=C1C2=C(CCN(Cc3ccccc3)C2)N2CCN=C2N1Cc1ccc(C(F)(F)F)cc1 [LX-7263] ; Survival (%) = 11.1

Reported Survival (%) for CC(=O)[O-].CC(=O)[O-].CCc1c(CC)c2cc3nc(cnc4cc(OCCOCCOCCOC)c(OCCOCCOCCOC)cc4ncc4nc(cc1[n-]2)C(CCCO)=C4C)C(C)=C3CCCO.O.[Gd+3] [LX-5211, Motexafin Gadolinium] was 98.8

---

System: doxorubicin-induced aged C57BL6J mice
Test: Hair loss area in doxorubicin-aged mice, Example 22-11, Table 40
Type: in vivo, mouse
Conditions: doxorubicin-induced aged mice; untreated 100 (±15.4)
property_name: Relative area of hair loss

Entry C[C@H]1[C@H](C)CC[C@]2(C(=O)O)CC[C@]3(C)C(=CC[C@@H]4[C@@]5(C)C[C@@H](O)[C@H](O)C(C)(C)[C@@H]5CC[C@]43C)[C@H]12 [LX-2002, Corosolic acid] ; Relative area of hair loss = 83 (±10.4) %

Note to self: Relative area of hair loss recorded for C=C(C)[C@@H]1CC[C@]2(C(=O)O)CC[C@]3(C)[C@H](CC[C@@H]4[C@@]5(C)CC[C@H](O)C(C)(C)[C@@H]5CC[C@]43C)[C@@H]12 [LX-2005, Betulinic acid] was 82 (±4.6) %

Just so you know, measured Relative area of hair loss for CC1(C)C=C2[C@H]3CC[C@@H]4[C@@]5(C)CCC(=O)C(C)(C)[C@@H]5CC[C@@]4(C)[C@]3(C)CC[C@@]2(C(=O)O)CC1 [LX-2007, Moronic acid] came out at 86 (±2.9) %

Per the records, this molecule ( Cc1cccc([C@H](C)c2cnc[nH]2)c1C [LX-6807, Dexmedetomidine] ) has Relative area of hair loss equal to 59 (±3.2) %

---

Tested on: senescent A549 cells
Experiment: Viability of senescent A549 cells (CellTiter-Glo), Example 18, Table 15
Conditions: 10 μM; doxorubicin-induced senescent A549 cells; 0 μM = 100%
property_name: Survival (%)

Survival (%) for senescent A549 cells with input CN1CCc2c(c3ccccc3n2Cc2ccc(C(=O)NO)cc2)C1 [LX-5352, Tubastatin A] equals 51.8%

For the compound CC(=O)[O-].CC(=O)[O-].CCc1c(CC)c2cc3nc(cnc4cc(OCCOCCOCCOC)c(OCCOCCOCCOC)cc4ncc4nc(cc1[n-]2)C(CCCO)=C4C)C(C)=C3CCCO.O.[Gd+3] [LX-5211, Motexafin Gadolinium] , the measured Survival (%) on senescent A549 cells was 88.1%

Entry CCO[C@@H](Cc1ccc(OCCn2c(C)ccc2-c2ccc(SC)cc2)cc1)C(=O)[O-].CCO[C@@H](Cc1ccc(OCCn2c(C)ccc2-c2ccc(SC)cc2)cc1)C(=O)[O-].[Mg+2] [LX-9717, Saroglitazar Magnesium] , tested on senescent A549 cells, has a reported Survival (%) of 75.4%
